This collection of values is drawn from patent US4142046A.

# Test system: Salmonella ATCC 12176
# PROCEDURE TEXT: MIC in vitro
# Type: cell-based
# MEASUREMENT CONTEXT: ATCC12176
Please respond with met when measured MIC is strictly beneath 2 µg/mL, and with not met in all other cases.

Consider the worked cases shown below.
COMPOUND: CCOC(=O)c1nn[nH]c1SCC1=C(C(=O)O)N2C(=O)C(NC(=O)[C@H](N)c3ccc(O)cc3)[C@H]2SC1 (some centres unmarked)
TARGET SYSTEM: Salmonella ATCC 12176
GROUP LABEL: not met

COMPOUND: CCOC(=O)Cc1nc(SCC2=C(C(=O)O)N3C(=O)C(NC(=O)[C@H](N)c4ccccc4)[C@H]3SC2)n[nH]1 (some centres unmarked)
TARGET SYSTEM: Salmonella ATCC 12176
GROUP LABEL: not met

COMPOUND: NC(=O)c1nn[nH]c1SCC1=C(C(=O)O)N2C(=O)C(NC(=O)[C@H](N)c3ccc(O)cc3)[C@H]2SC1 (some centres unmarked)
TARGET SYSTEM: Salmonella ATCC 12176
GROUP LABEL: met

COMPOUND: N[C@@H](C(=O)NC1C(=O)N2C(C(=O)O)=C(CSc3n[nH]c(CC(=O)O)n3)CS[C@H]12)c1ccc(O)cc1 (some centres unmarked)
TARGET SYSTEM: Salmonella ATCC 12176
GROUP LABEL: met

Now consider the entry below.
Could you please tell me whether MIC recorded for CCOC(=O)c1nn[nH]c1SCC1=C(C(=O)O)N2C(=O)C(NC(=O)[C@H](N)c3ccccc3)[C@H]2SC1 (some centres unmarked) is less than 2 µg/mL?
not met
